Experiment: HUVEC growth inhibition – cell-based, human, primary screen (AID 575);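 also: 100% = median of untreated cell wells with 0.1% DMSO on each plate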
Details: HUVEC proliferation, CellTiter-Glo luminescence, 72 h; at 10 µM; stronger effect = lower value
Collected viability values appear next to each entry.

[
  {
    "COMPOUND": "CC1CCc2c(sc(N)c2C(N)=O)C1 (stereo unspecified)",
    "viability (%)": 86.7
  },
  {
    "COMPOUND": "O=C(CN1CCN(Cc2ccc3c(c2)OCO3)CC1)Nc1ccc2c(c1)OCCO2",
    "viability (%)": 93.8
  },
  {
    "COMPOUND": "Cc1ccc(Cn2c(SCCN3CCCCC3)nc3c2c(=O)[nH]c(=O)n3C)cc1",
    "viability (%)": 84.1
  },
  {
    "COMPOUND": "CN(C)/C=C1\\N=C(c2ccc3c(c2)OCO3)OC1=O",
    "viability (%)": 94.4
  },
  {
    "COMPOUND": "OCCN(CCO)c1nc(N2CCCCC2)c2nc(N(CCO)CCO)nc(N3CCCCC3)c2n1",
    "viability (%)": 79.6
  },
  {
    "COMPOUND": "Cc1ccc(-c2noc(CCC(=O)N3CCN(c4cccc(C(F)(F)F)c4)CC3)n2)cc1",
    "viability (%)": 71.2
  },
  {
    "COMPOUND": "Cc1cccc(C)c1NC(=O)CC(NCc1ccco1)C(=O)O (stereo unspecified)",
    "viability (%)": 118
  },
  {
    "COMPOUND": "COC(=O)C(C)C1Sc2ccccc2NC1=O (stereo unspecified)",
    "viability (%)": 119
  },
  {
    "COMPOUND": "COc1ccc(Br)cc1C(=O)Nc1nnn(C)n1",
    "viability (%)": 106
  },
  {
    "COMPOUND": "O=C(CSc1nnc(CNC(=O)c2c(F)cccc2Cl)o1)c1ccccc1",
    "viability (%)": 112
  },
  {
    "COMPOUND": "Cc1cccc(Nc2ccccc2C(=O)O)c1C",
    "viability (%)": 65.7
  }
]

---

Experiment: RAM signaling pathway blockade in yeast – S. cerevisiae, Pdr1DBD-CYC8 efflux-inhibited sensitized strain, primary screen (AID 1298);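 also: 0% = DMSO untreated cells without growth and 100% = 10 µM 1-NA-PP1 full growth; higher means more yeast growth rescued from 5-FOA killing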
Settings: S. cerevisiae cbk1-as DSE1-URA3 strain, 5-FOA growth OD615, 2 d; at 50 µM; stronger effect = higher value
Collected RAM network inhibition values appear next to each entry.

[
  {
    "MOLECULE": "CC1(C)Cc2nc3sc4c(=O)n(CC(=O)NCc5ccco5)cnc4c3cc2CO1",
    "RAM network inhibition, %": 4.21
  },
  {
    "MOLECULE": "COc1ccccc1N1CCN(c2cc(=O)n(-c3ccc(Cl)cc3)c(=O)[nH]2)CC1",
    "RAM network inhibition, %": 7.55
  },
  {
    "MOLECULE": "O=C(CSc1nnc(-c2ccccn2)n1Cc1ccco1)c1ccccc1",
    "RAM network inhibition, %": 7.41
  },
  {
    "MOLECULE": "Cc1ccc2c(c1)NC(=O)C(CC(=O)NCCCN1CCCCC1C)O2 (stereo unspecified)",
    "RAM network inhibition, %": 1.25
  },
  {
    "MOLECULE": "COc1ccc2cc(C(=O)Nc3c(C)n(C)n(-c4ccccc4)c3=O)sc(=O)c2c1OC",
    "RAM network inhibition, %": 0.16
  },
  {
    "MOLECULE": "O=C(Cn1cc2c(n1)CCCCC2)NCc1ccccc1",
    "RAM network inhibition, %": 3.47
  },
  {
    "MOLECULE": "Cc1cc2ccccc2n1CCNC(=O)COc1ccccc1",
    "RAM network inhibition, %": 8.38
  },
  {
    "MOLECULE": "Cc1cccc(NC(=O)c2ccccc2Br)n1",
    "RAM network inhibition, %": 2.02
  },
  {
    "MOLECULE": "CCOC(=O)C(C)Sc1nc2c(c(=O)[nH]c(=O)n2C)n1Cc1ccc(Cl)cc1 (stereo unspecified)",
    "RAM network inhibition, %": 2.79
  },
  {
    "MOLECULE": "COc1ccc2c(Cl)c(C(=O)NC3CCS(=O)(=O)C3)sc2c1 (stereo unspecified)",
    "RAM network inhibition, %": 1.43
  },
  {
    "MOLECULE": "Cc1cccc(-n2c(CNC(=O)c3ccccc3)nnc2SCC(=O)Nc2nccs2)c1",
    "RAM network inhibition, %": 5.7
  }
]

---

Experiment: growth inhibitors of H69AR lung tumor, primary screen, human, duplicate replicates (AID 580);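 also: 100% = mean luminescence of untreated wells and 0% = no signal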
Conditions: H69AR lung tumor cells viability, ATP luminescence, 72 h; at 10 µM; stronger effect = lower value

[
  {
    "MOLECULE": "CCCn1c2ccccc2c2nnc(SCC(=O)Nc3ncccn3)nc21",
    "viability, %": 87.6
  },
  {
    "MOLECULE": "CCOC(=O)c1ccc(NC(=O)CSc2ncccn2)cc1",
    "viability, %": 96.9
  },
  {
    "MOLECULE": "Cc1ccc(C)c(NC(=O)c2ccc3c(c2)N(Cc2ccc(F)cc2)C(=O)CS3=O)c1 (stereo unspecified)",
    "viability, %": 97.1
  },
  {
    "MOLECULE": "O=C(NCC1CCCCN1)c1cc(OCC(F)(F)F)ccc1OCC(F)(F)F (stereo unspecified)",
    "viability, %": 97.9
  },
  {
    "MOLECULE": "CCOC(=O)N1CCN(S(=O)(=O)c2cc(C)c(C)cc2C)CC1",
    "viability, %": 95.3
  },
  {
    "MOLECULE": "Cc1cccc(OCC(=O)N2CCC(N3CCCCCC3)CC2)c1",
    "viability, %": 106
  },
  {
    "MOLECULE": "CCn1c(=O)c(=O)[nH]c2cc(C(=O)N3CCN(c4ccccc4F)CC3)ccc21",
    "viability, %": 98.9
  },
  {
    "MOLECULE": "Cc1cc(C(F)F)n2ncc(C(=O)NC3CCCCCC3)c2n1",
    "viability, %": 89.9
  },
  {
    "MOLECULE": "CCn1c(=O)cc(OCC(=O)NC2CCCCC2)c2ccccc21",
    "viability, %": 87
  },
  {
    "MOLECULE": "CCOC(=O)CSc1nnc(Cn2nnc(-c3ccccc3)n2)n1CC",
    "viability, %": 90.7
  },
  {
    "MOLECULE": "C/C=C/Cn1c(Br)nc2c1c(=O)[nH]c(=O)n2C",
    "viability, %": 93.5
  }
]

---

Assay: growth suppression of PTEN-deleted HCT116, pilot screen, cell-based, HCT116 clonal line, CellTiter-Glo (AID 824);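 also: 0% = 20 µM Hyamine control and 100% = vehicle cell control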
Conditions: 60 h, at 10 µM, stronger effect = lower value
Records with an inconclusive call do not appear.
PARAMETER_MEASURED: viability (%)

[
  {
    "COMPOUND": "O=C(Nc1cnc2ccccc2c1)c1ccncc1",
    "ASSAY_VALUE": 87.1
  },
  {
    "COMPOUND": "CS(=O)(=O)N1CCN(c2nc(-c3ccc(F)cc3)cs2)CC1",
    "ASSAY_VALUE": 88.8
  },
  {
    "COMPOUND": "CCOCCCNC(=O)c1cccs1",
    "ASSAY_VALUE": 94.4
  },
  {
    "COMPOUND": "CC1CCCCN1Cc1nc2c(c(=O)n(C)c(=O)n2C)n1Cc1c(F)cccc1Cl (configuration not stated)",
    "ASSAY_VALUE": 79.2
  },
  {
    "COMPOUND": "CCOc1ccccc1C(=O)NC1CCN(Cc2nnnn2C2CCCC2)CC1",
    "ASSAY_VALUE": 98.9
  },
  {
    "COMPOUND": "CCCNc1nc2c(c(=O)[nH]c(=O)n2C)n1Cc1cccc(Br)c1",
    "ASSAY_VALUE": 92.6
  },
  {
    "COMPOUND": "CC(=O)c1cccc(NC(=O)C2CCN(S(=O)(=O)c3ccc(F)cc3)CC2)c1",
    "ASSAY_VALUE": 93.5
  },
  {
    "COMPOUND": "O=C(O)CSc1cccc2cccnc12",
    "ASSAY_VALUE": 102
  },
  {
    "COMPOUND": "CCCC(=O)Nc1cc(=O)n(C)c(=O)n1C",
    "ASSAY_VALUE": 94.8
  },
  {
    "COMPOUND": "COc1ccc(N2C(=O)C3CCCN3C2c2ccc(C)cc2)cc1 (configuration not stated)",
    "ASSAY_VALUE": 99.2
  },
  {
    "COMPOUND": "c1csc(CNc2ncnc3sccc23)c1",
    "ASSAY_VALUE": 62.7
  },
  {
    "COMPOUND": "CC(NC(=O)CN1CCN(Cc2ccc(Cl)cc2)C1=O)c1ccc2c(c1)OCCO2 (configuration not stated)",
    "ASSAY_VALUE": 86.3
  }
]
